test system: rape; test: Test B pre/postemergence rape; assay type: in vivo, Brassica napus; conditions: Rate 62 g/ha, Postemergence; scale of 0 to 10 where 0 is no effect and 10 is complete control
Recorded Rape plant response rating by entry
Quick one: just the number, no unit, thanks!

{"Compound": "CC(C)N(C(=O)n1oc(=O)n(C2CCC2)c1=O)c1ccc(F)cc1F [Compound 351]", "Experimental Target": "rape", "Rape plant response rating": 0}
{"Compound": "Cc1nc(C)c(Cn2c(=O)on(C(=O)N(c3ccc(F)cc3F)C(C)C)c2=O)s1 [Compound 233]", "Experimental Target": "rape", "Rape plant response rating": 2}
{"Compound": "CC(C)N(C(=O)n1oc(=O)n(C2(C)CC2)c1=O)c1ccc(Cl)cc1 [Compound 361]", "Experimental Target": "rape", "Rape plant response rating": 2}
{"Compound": "CC(C)N(C(=O)n1oc(=O)n(CCC2OCCO2)c1=O)c1ccc(F)cc1 [Compound 219]", "Experimental Target": "rape", "Rape plant response rating": 2}

// Rape plant response rating lookup, key: [2H]C([2H])([2H])n1c(=O)on(C(=O)N(c2ccc(F)cc2)C(C)C)c1=O [Compound 245]
0

What value of Rape plant response rating has been recorded for this entry: Cc1ccccc1-n1c(=O)on(C(=O)N(c2ccc(C(C)C)cc2)C(C)C)c1=O [Compound 231]
0
